- test_method_notes: folding stability dG unfold (combined trypsin and chymotrypsin); higher = more stable
Entries and their measured folding stability dG unfold follow.
measurement_type: folding stability dG unfold (kcal/mol)

1. SAGGSAGGSAGEVEIEITKVTENEDGSETLEMTIRDKDTGKTYKLTFNKDNGILTLEEEPSAGGSAGGSAGG [r11_991_TrROS_Hall]	2.43
2. SAGGSAGGSKPVLKITVTNEKGEKQTISLDELQAETGLSAEEIAARLAALLPPGAKITIEPVPSAGGSAGGS [r12_399_TrROS_Hall]	1.98
3. SAGGMKSETIPLTTPEGVPFEVTITTENGKVTVTITPLDPSAPEEVVEAVRAAVEARAAAAGKTVTLVSAGG [r13_774_JUSTAS]	1.42

====

- test_method_notes: folding stability dG unfold from trypsin proteolysis; higher = more stable
measurement_type: folding stability dG unfold (kcal/mol)

1. SAGGSAGGSAGGMPTTATITLPGGETLTVPVPVDPSTGTVSEEEIRALVGPEFEFEILGGSAGGSAGGSAGG [r7_492_JUSTAS]	0.779
2. SAGGSAKIEIERIEPRPVLVPRPDGSLVPVPEVEVELRIEGDPEKMEEEERKKIEALAEEIAKELGSAGGSA [r2_40_TrMRF]	-0.508
3. SAGGMKVEKNTIYIEVEKDMSAEEVAKKIAEELKKKGLKVEIKVEKKEDGTKVIRIKVDGKEIEIYASAGGS [r16_771_TrROS_Hall]	1.84
4. SAGGSAVTITVDDFEDIEDAEITLTRPDGRPVVARVRVEKGEGAPRVTVLWREPGSGRYRVETFPLSAGGSA [r15_1006_TrMRF]	0.925
5. SAGGSAGGSMVTTSIDPSGTAKITVTDGGGVPVSTATIPVDPNAILTYDPNNSSISTFSPVSSSAGGSAGGS [r12_1002_JUSTAS]	0.519
6. SAGGSAGGSAGVITIPLDDINDLPPGFKVKPNNNSMMIEDGDNPIHIPPGEPVQIEPPDESAGGSAGGSAGG [r17_91_TrROS]	0.65
7. SATLTFTATLPDGSRVLEVTAEPRPDGTVTIRMRAEFTFAPGVTVTVPATITVPVPPPPALPPDDPRLFSAG [r14_95_TrMRF]	2.73
8. SAGGETKTITIKVDGKLVTITVKKNKNGEELVTVKVYENGKLVEEVTMSKDELEELAKKLGLSVEELKSAGG [r13_108_TrROS_Hall]	3.27
9. SAGQWVKFTLPIYKMKYEKDKDGKPEIKEMKPIPKFDIEARVDEDGNVRIRFGGNEREFPPGESLEDLISAG [r14_909_TrROS]	0.0407
10. SAGGSAGGSGGMTPTSRDYVLPNGEKLAVEETFTFPDGSSVTKVLDPKTGTTTTLPASTIASASAGGSAGGS [r12_488_JUSTAS]	0.451
11. SAGGSAGGSMKLPPELKGKKIRIRVRNKNGETVEAEATVLEDGTIEIKIEGLSEEEITEIEIESAGGSAGGS [r12_477_TrROS_Hall]	2.36
12. SAGGSAGGSFKDVPPGLKPLREEENVLFYQLPDGSYLVLVKEGDKIKKIKASKSTSIEEAIKKSAGGSAGGS [r12_605_JUSTAS]	0.44
13. SAGGSAGGGITAKEAAELLEKYLKEKGYDYEVKIEEVDPVNPTVKITVTFPDGSKLEITLPIVDSAGGSAGG [r6_617_TrMRF]	3.02
14. SAGDAEEIAKKIEEAAREEFAARLGYPDLEILKVEVLEVDPVTGRVRVRVTVRLPDGRLLEAEFEVPVASAG [r5_20_TrMRF]	3.83
15. SAGGMVVRTPDGSTVEITVTDPASGSPYRSTDPGGGVEAAIAAINASPAYPNATVSITRYDAGTASPASAGG [r13_914_JUSTAS]	-0.286
16. SAGGKEWYIKVSIEHRNPNNGEKRELSITIPVEGMSAEEALDIARELARHLPPENVKIEVDIVPLDDSAGGS [r16_774_TrROS]	1.78
17. SASLVVRLPDGTEILFENLSLEEVVKLFDGGEIEIEPVPKLPVVNASSLEEAEEIAEKLKPDFVITLSGSAG [r14_445_TrMRF]	1.6
18. SAGGSAGGSAAKPIPFTITSVSVPTAPDGKKYAVVEISFPGSGAKAWAVYDIDDPYIKEAGSAGGSAGGSAG [r3_57_TrMRF]	0.804
19. SAGGMKIEITVSPVGDVVNVEVKIELPEGPVEVVDETPAEVAPDGSIHIKLKLKLPNGPWLEMEIEVSAGGS [r8_449_JUSTAS]	2.91
20. SAGGSALPEDATVKVEVTVVTLVYDPETGGFYLKVAKVEKEIRFDPKNGKLEVKVKKVEVKVFKLGSAGGSA [r15_517_TrMRF]	2.96
21. SAGGMELTIPLPNGKLLKIKVEEVKAEPVLVEFELRDANGKLIDTIPAPSGFKISIRFSVEIYDPNEYSAGG [r13_848_TrMRF]	2.92
22. SAGGEELARRLAEELRELGLEVEVVDVDLEEGKITIRVRPAPPPPPVTERRTRRRPDGREVTEERVLSAGGS [r8_318_TrROS_Hall]	0.282
23. SAGGSAGKIEIPLPELGEVREEPVPDTVRIEVRFPDGRVLEATVLKDDTIEIREKGTGKLVATLPASAGGSA [r15_656_TrMRF]	1.44

====

- test_method_notes: folding stability dG unfold (combined trypsin and chymotrypsin); higher = more stable
Mark criterion not met for folding stability dG unfold values under 1 kcal/mol, and criterion met for everything at or above.

1. SAGGSAGGRIEVDPEGATIKYEHNPNMMQIEIKYPGKKVQIMIPPDFMKQNPDMPIKDLVEWILSAGGSAGG [r6_369_TrROS]	criterion met
2. SAGGSVEVTKTESKGPGGTVTVEALKTVTKFDEKGNPVKEEEVRITRTETYDPNTGKVTTTTTVEGSAGGSA [r2_220_JUSTAS]	criterion not met
3. SAGGSAGGWPLMVEYTPPGDGKTQTYPIPIKGPLSEIKDQIKENMPPGFREVEISPANIEKILKSAGGSAGG [r6_889_TrROS]	criterion not met
4. SAGGSIPADTVATLTLPDRDLAVRVELVDGTPRYLVTGPDGTPVGTLTPEEFAAFVAALPADARLDLRSAGG [r13_657_JUSTAS]	criterion met
5. SAGGSAGGEKKYEVVEKKELTLEDIEKADEILVVGKDGKVFKSRDDVKAAAEKGEKITVYVVKKSAGGSAGG [r6_827_TrROS_Hall]	criterion not met
6. SAGGSAGGSAGGEPEVKVELRVELDEDGRLRVTLKVEFEDGTVERELELEAPVVFFPPEESAGGSAGGSAGG [r7_992_TrROS_Hall]	criterion met
7. SAGGSAGGPKWRRYTIPLDKIKEIDPGGTVTLDDIQDLGLPPDHEIRVVPRPDGEPWVSIEVPYSAGGSAGG [r6_553_TrROS]	criterion not met
8. SAGGSAGGSPETLTITVKEKPVRIEINGKVIEVKPGDTITIPKELANNIRIEVNEDGSITITPSAGGSAGGS [r20_150_TrROS_Hall]	criterion met
9. SAGGSAGGSMMKVRVYARNKDGEEVPVEEIEIPPEVETPEEALKLAEELAKKEGVEEVRVEIESAGGSAGGS [r12_569_TrROS_Hall]	criterion not met
10. SAGWISPKQLRHALRNGKPIKIYMPNPQNKEHAKNWLRQETGLPKEEQKELLKDVKIEPMPPNDPNFKKSAG [r5_368_TrROS]	criterion not met

====

Entries and their measured folding stability dG unfold follow.
- test_method_notes: folding stability dG unfold (combined trypsin and chymotrypsin); higher = more stable
measurement_type: folding stability dG unfold (kcal/mol)

1) SAGITITVPPGKPYYVHITMYMFDPNGKLMGPQTIMFPIRVPPDDTIEIPIPFDSPNIRITDISIMPKSAGG [r19_295_TrROS]	2.4
2) SFIRKDPDGTYVIMGRMPPNMPIEEFLENLPGFKIKDVEYQPDPENGYWYFTLVITPRGKVKIDWVPMGDSA [r9_238_TrROS]	2
3) SAGMKKPPPPTVTIKIRVNGKTITITVYPDGTVTVTFENGEKKTIKMTPEEVEKLLKELEKKGYEIELVSAG [r5_753_TrROS_Hall]	1.49
4) SARIRFPDGKPIDMEIVNIHRTPNGLTITIVLRHKDEYRVITFEIPPDGEIRIKSVERVPLPPGDPALVSAG [r14_13_TrROS]	2.96
5) SAANTEEITITVPLTDPETGEERTVTIPVKYVNTNKPYKTPNGSTKTIPVPKSTVIKEAEEEAKKIFESSSA [r9_698_JUSTAS]	-0.369
6) SAMTEEEKKKKKEEEEKKKRELKIIVVAKTKDGKWKKIAEFTVKNKDMSIEELVKKLKDLGVEEVKIFPSAG [r14_318_TrROS_Hall]	2.67
7) SAGGKLIIVIEVNGETIEVDLEEAETLEEAIQKVLDEIRERFPEIGTVRIKVFDEKGKLIKEIEIKLKSAGG [r13_257_TrROS_Hall]	3.51
